These data points were gathered from patent US8658690B2.

tested on: TNF-α; experiment: Spontaneous TNF-α secretion by RAW264.7 cells, sandwich ELISA of supernatants; format: cell-based, murine; details: spontaneous, 10 μg/mL, 48 hours; control 88 ± 45
Task for the reader: assign each of the following molecules its reported TNF-α (pg/mL) secretion.
Report the figure in pg/mL without appending any unit label.

Prompt line: I would be grateful if you could share the reported TNF-α (pg/mL) secretion for CC(C)CC1=C(c2ccc(O)cc2)C(=O)NC1=O .
Response line: 104

Prompt line: Also check CC(C)C[C@H]1C(=O)OC(=O)[C@H]1c1ccc(O)cc1 (relative stereo)
Response line: 77

Prompt line: Also check CC(C)CC1=C(c2ccc(O)cc2)C(=O)OC1=O
Response line: 106

Prompt line: Also check CC(C)C[C@@H]1C(=O)N(O)C(=O)[C@H]1c1ccc(O)cc1 (relative stereo)
Response line: 128

Prompt line: Also check CC(C)=CCOc1ccc([C@@H]2C(=O)NC(=O)[C@H]2CC(C)C)cc1 (relative stereo)
Response line: 188

Prompt line: Also check COC(=O)/C(CC(C)C)=C(\C(=O)OC)c1ccc(O)cc1
Response line: 116

###

Task for the reader: assign each of the following molecules its reported Cell viability (%).
tested on: LPS-stimulated RAW264.7 macrophage cells; assay: Cell viability by MTT method in LPS-stimulated RAW264.7 cells; type: cell-based, murine; details: 0.5 μg/mL, 30 min pretreatment then 50 ng/mL LPS 48 hours
// unit must come after the numeric part

Prompt line: I would be grateful if you could share the reported Cell viability (%) for CC(C)C[C@@H]1C(=O)N(O)C(=O)[C@H]1c1ccc(O)cc1 (relative stereo) .
Response line: 110 ± 5 %

Prompt line: Also check CC(C)C[C@H]1C(=O)OC(=O)[C@H]1c1ccc(O)cc1 (relative stereo)
Response line: 105 ± 6%

Prompt line: Also check CC(C)CC1=C(c2ccc(O)cc2)C(=O)NC1=O
Response line: 105 ± 6%

Prompt line: Also check CC(C)CC1=C(c2ccc(O)cc2)C(=O)OC1=O
Response line: 106 ± 4 %

Prompt line: Also check CC(C)=CCOc1ccc([C@@H]2C(=O)NC(=O)[C@H]2CC(C)C)cc1 (relative stereo)
Response line: 105 ± 3%

Prompt line: Also check COC(=O)/C(CC(C)C)=C(\C(=O)OC)c1ccc(O)cc1
Response line: 108 ± 6%

###

system: RAW264.7 macrophage cells; assay: Cell viability by MTT method in RAW264.7 cells treated with compounds for 48 hours (no LPS); type: cell-based, murine; conditions: 5 μg/mL, RAW264.7, no LPS, mean ± SD
Task for the reader: assign each of the following molecules its reported Cell viability (%).
Report the figure in % without appending any unit label.

Prompt line: I would be grateful if you could share the reported Cell viability (%) for CC(C)C[C@H]1C(=O)OC(=O)[C@H]1c1ccc(O)cc1 (relative stereo) [Compound 3] .
Response line: 72

Prompt line: Also check CC(C)CC1=C(c2ccc(O)cc2)C(=O)OC1=O [Compound 5]
Response line: 95

Prompt line: Also check CC(C)C[C@@H]1C(=O)N(O)C(=O)[C@H]1c1ccc(O)cc1 (relative stereo) [Compound 2]
Response line: 94

Prompt line: Also check CC(C)CC1=C(c2ccc(O)cc2)C(=O)NC1=O [Compound 4]
Response line: 94

Prompt line: Also check CC(C)=CCOc1ccc([C@@H]2C(=O)NC(=O)[C@H]2CC(C)C)cc1 (relative stereo) [Compound 1]
Response line: 100

Prompt line: Also check COC(=O)/C(CC(C)C)=C(\C(=O)OC)c1ccc(O)cc1 [Compound 6]
Response line: 95

###

test system: RAW264.7 macrophage cells; test: Cell viability by MTT method in RAW264.7 cells treated with compounds for 48 hours (no LPS); type: cell-based, murine; conditions: 10 μg/mL, RAW264.7, no LPS, mean ± SD
Task for the reader: assign each of the following molecules its reported Cell viability (%).
Report the figure in % without appending any unit label.

Prompt line: I would be grateful if you could share the reported Cell viability (%) for CC(C)C[C@H]1C(=O)OC(=O)[C@H]1c1ccc(O)cc1 (relative stereo) .
Response line: 67

Prompt line: Also check CC(C)CC1=C(c2ccc(O)cc2)C(=O)OC1=O
Response line: 86

Prompt line: Also check CC(C)=CCOc1ccc([C@@H]2C(=O)NC(=O)[C@H]2CC(C)C)cc1 (relative stereo)
Response line: 99

Prompt line: Also check CC(C)C[C@@H]1C(=O)N(O)C(=O)[C@H]1c1ccc(O)cc1 (relative stereo)
Response line: 90

Prompt line: Also check CC(C)CC1=C(c2ccc(O)cc2)C(=O)NC1=O
Response line: 81

Prompt line: Also check COC(=O)/C(CC(C)C)=C(\C(=O)OC)c1ccc(O)cc1
Response line: 96
